assay_info: blocking HSF1-driven luciferase expression – cell-based, NIH3T3, luminescence, primary screen (AID 2098);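 note: luciferase reports HSF-1 transcriptional activity via heat shock element; 0% = median of DMSO wells and -100% = zero luminescence signal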
condition_details: NIH3T3-HGL HSE-luciferase, MG132-induced, luminescence 8 h; screened at 7.5 µM (by protocol)
The campaign covered roughly 300,000 compounds. About 2,300 (0.77%) were called active.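 Rule for the calls: active = more than half of replicate wells show activity change below -50%, luminescence cut by over half; inconclusive = some wells, but at most half, below -50%; inactive = no replicate well below -50%.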 Only a selection was taken, and actives are over-represented in it overall.
Form entry, call: pick from active, inactive

For this compound, state the assay outcome: Cc1cccc(NC(=O)c2nc(S(=O)(=O)Cc3ccccc3)ncc2Cl)c1
active

Record request — test call for COc1ccccc1C(=O)NC(CCSC)C(=O)NNC(=O)c1ccccc1C (configuration not stated)
inactive

Record request — test call for COc1ccccc1C(=O)NCCC(=O)NC(C)CCc1ccccc1 (configuration not stated)
inactive

Kindly provide the recorded test outcome for the following compound: Cc1ccc(CNS(=O)(=O)CCNC(=O)c2ccccc2)cc1
inactive

I would be grateful if you could indicate the recorded call for Brc1ccc2nc(N3CCCC3)sc2c1 .
inactive

Test call, this compound: Cc1ccc(S(=O)(=O)CC(=O)Nc2nnc(C)s2)cc1
inactive

How did this test come out for CS(=O)(=O)c1ccc(Cl)c(NC(=O)COC(=O)c2ncc(Cl)c(Cl)c2Cl)c1 ?
inactive

# outcome recorded in this test, key = O=C(NCCS(=O)(=O)NCc1ccc(Cl)cc1)c1ccccc1
inactive

Each compound tested received a call. Report the one for O=C(Cn1c(N2CCN(C/C=C/c3ccccc3)CC2)nc2ccccc21)c1ccccc1 .
inactive

Hi team, can someone confirm the assay call for COc1cccc(OC)c1C(=O)Nc1sc2c(c1C(N)=O)CCCC2 ?
inactive

What call does the record list for COc1ccc(CCNC(=S)N2CCN(S(=O)(=O)c3ccc(F)cc3)CC2)cc1 ?
inactive

Hi team, can someone confirm the assay call for Cc1ccc(S(=O)(=O)CCC(=O)OCC(=O)N(C)C2CCS(=O)(=O)C2)cc1 (configuration not stated) ?
inactive

Just curious, what result did COc1ccc2c(c1)CCNC2Cc1ccc(OC)c(O)c1 (configuration not stated) get here?
inactive

Fill in: this test's call for Clc1ccc(Nc2ccc3ccccc3n2)cc1 is ___
inactive

Each compound tested received a call. Report the one for Cc1ccc(CS(=O)(=O)c2ncc(Cl)c(C(=O)Nc3nnc(C)s3)n2)cc1 .
active

Could you check what this test reported for Cc1ccc(C(=O)N/N=C/c2cccc3ccccc23)cn1 ?
inactive

I'd appreciate the recorded outcome for CC(C)N(C(=O)Cn1c(SCC(=O)N2CCN(c3ccccc3)CC2)nc2ccccc21)C(C)C from this test.
inactive

In this assay, the call recorded for Cc1sc(NC(=O)c2ccc3ncsc3c2)c(C(N)=O)c1C was what?
inactive

How was CC(C)Cn1c(N2CCN(C(=O)/C=C/c3ccccc3)CC2)nc2ccccc21 classified in this test?
active

For this compound, state the assay outcome: c1c2c(cc3sc(N4CCCCC4)nc13)OCCO2
active

Recorded test call requested for COc1cc2c(cc1O)[C@H](Cc1ccc(Oc3cc(C[C@@H]4NCCc5cc(OC)c(O)cc54)ccc3O)cc1)NCC2
inactive

Could you kindly confirm the outcome this assay logged for O=C(COc1ccccc1F)Nc1nc(-c2ccccn2)cs1 ?
inactive

---

assay_info: blocking HSF1-driven luciferase expression – cell-based, NIH3T3, luminescence, primary screen (AID 2098);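 note: luciferase reports HSF-1 transcriptional activity via heat shock element; 0% = median of DMSO wells and -100% = zero luminescence signal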
condition_details: NIH3T3-HGL HSE-luciferase, MG132-induced, luminescence 8 h; hits give low values; screened at 7.5 µM (by protocol)
Out of some 300,000 compounds screened, about 2,300 (0.77%) were called active. The sample holds actives, similar compounds and a random draw of the others, so the mix is not that of the screen.
measurement_kind: activity change, negative = inhibition (%)
# number only, unit % dropped from output

The value of activity change, negative = inhibition measured for the compound O=S(=O)(Nc1ccc(-c2ccc(N3CCOCC3)nn2)cc1)c1cc(Cl)ccc1Cl turned out to be 11.6

Sure, the documented activity change, negative = inhibition for O=C(NNS(=O)(=O)c1ccc(F)cc1)c1cnccn1 is 4.99

Input O=C(COC(=O)Cc1c[nH]c2ccccc12)NCCc1ccccc1 . Output activity change, negative = inhibition: -4.81

activity change, negative = inhibition for Cc1ccc(S(=O)(=O)N(Cc2cccc([N+](=O)[O-])c2)C(=O)N2CCN(C)CC2)cc1 is -0.764

activity change, negative = inhibition reported for this compound COc1cc(/C=N/n2c(C)n[nH]c2=S)ccc1OCc1ccccc1 : -2.45

Sure, the documented activity change, negative = inhibition for Cn1c(-c2sc3cc(C(F)(F)F)cnc3c2-c2ccccc2)n[nH]c1=S is -4.57

What the record says about COc1ccc(NC(=O)c2cc(-c3ccc(C)cc3)on2)cc1 : activity change, negative = inhibition is -1.83

get_value(item= CCC(C)N(C(=O)CSc1ncnc2c1cnn2-c1ccccc1)C1CCS(=O)(=O)C1 (stereo not drawn) , readout=activity change, negative = inhibition) returns 0.752

Value of activity change, negative = inhibition reported for the compound COc1ccc(NC(=O)Cn2c(=O)n(Cc3ccco3)c(=O)c3ccccc32)cc1 is -89

Item: O=C(COC(=O)c1cccc(Cl)c1)Nc1ccc2[nH]c(=O)[nH]c2c1 | activity change, negative = inhibition: -4.05

The compound CCn1cc(CN2CCC(C(=O)Nc3cccc(-c4cccc(Cl)c4)c3)CC2)cn1 showed activity change, negative = inhibition equal to 13.5

For Cc1cccc(C(=O)Nc2nnc(S(=O)(=O)N3CCCCCC3)s2)c1 the compound record lists activity change, negative = inhibition as -1.91

Quick note, activity change, negative = inhibition for COc1ccc(CC(=O)OC(C)C(=O)Nc2ccc(S(N)(=O)=O)cc2)cc1 (stereo not drawn) landed at -3.68

Recorded result, COc1ccc(NS(=O)(=O)c2ccc(C)c(C(=O)N(C)Cc3ccc(OC)cc3OC)c2)cc1 , activity change, negative = inhibition: -0.123

For this compound ( CCOC(=O)c1ccc(NC(=O)c2cccnc2)cc1 ), measured activity change, negative = inhibition is -6.35

Entry NS(=O)(=O)c1ccc(CNC(=O)c2cccc(Oc3ccccc3)c2)cc1 — recorded activity change, negative = inhibition = -1.65

Documented activity change, negative = inhibition of O=C(CCN1C(=O)C2CCCCC2C1=O)Nc1ccc(OC(F)F)cc1 (stereo not drawn) : 5.73

So, CCOC(=O)c1c(C)oc2cc(Sc3ccccc3)c(O)c(O)c12 ? Its activity change, negative = inhibition was 13.1

For reference, reported activity change, negative = inhibition for CC(=O)Nc1cccc(C(=O)OCC(=O)NCc2cc(C)c(O)c(C)c2)c1 stands at 9.36

// sample CCOc1cc(C(=O)Nc2ncccn2)cc(OCC)c1OCC , its activity change, negative = inhibition was -4.41

Recorded activity change, negative = inhibition (compound COc1ccc(NC(=O)/C(Cl)=C(/Cl)S(=O)Cc2ccc(C)cc2)cn1 (stereo not drawn) ): -94.7

Quick note, activity change, negative = inhibition for CCn1cc(CN2CCC(C(=O)Nc3cccc(-c4cccc(Cl)c4)c3)CC2)c(C)n1 landed at -68.5

# activity change, negative = inhibition of CCCc1c(C(=O)Nc2ccc(F)cc2)cnn1-c1ccccc1 = 6.52

// Cn1c(-c2sccc2OCc2cccc(C(F)(F)F)c2)n[nH]c1=S : activity change, negative = inhibition value = -82.6

// activity change, negative = inhibition value for CCCCn1c(N)c(N(CC(C)C)C(=O)c2ccc(-n3c(C)ccc3C)cc2)c(=O)[nH]c1=O : -2.25

For record COc1cccc(NC(=O)C2CCCN(c3ncnc4c3nc3n4CCCCC3)C2)c1 (stereo not drawn) the listed activity change, negative = inhibition is -3.75

# compound Cc1cccc(C(=O)NCc2nnc(SC(C)C(=O)Nc3nnc(C)s3)n2C)c1 (stereo not drawn) ; its activity change, negative = inhibition = -1.96

Given item CCOC(=O)c1cc(NC(=O)c2cccnc2)ccn1 , the value recorded as its activity change, negative = inhibition is -72.9

The reported activity change, negative = inhibition of the compound CCOc1ccc(C(=O)Nc2ccncc2)cc1 was 4.46

The reported value for N#CC1=C(N)Oc2n[nH]c(CSc3ccccc3)c2C12C(=O)Nc1ccccc12 (stereo not drawn) in terms of activity change, negative = inhibition is -57.8

Documented activity change, negative = inhibition of CCCNC(=O)c1ccc(N2CCC3(CC2)CC(c2cccc(Br)c2)=NO3)c(NC(=O)c2ccco2)c1 : -5.02

Lab book: activity change, negative = inhibition of Cc1ccc(C2(C)NC(=O)N(CC(=O)Nc3ccccc3C(=O)N3CCCCC3)C2=O)cc1 (stereo not drawn) noted as 10.1

Note to self: activity change, negative = inhibition recorded for CN(CC(=O)Nc1ccccc1Cl)C(=O)COc1cccc2c1OC(C)(C)C2 was 4.06

activity change, negative = inhibition recorded for this compound, O=C(COC(=O)c1ccccn1)NNC(=O)c1ccc([N+](=O)[O-])cc1 , is -1.26

compound C=CCOc1ccc(/C=C/C(=O)OC(C)C(=O)Nc2ccc(NC(C)=O)cc2)cc1 (stereo not drawn) , activity change, negative = inhibition observed: 12.2

Value of activity change, negative = inhibition reported for the compound CC(Oc1ccc(F)cc1)C(=O)Nc1ccccc1C(=O)NC1CC1 (stereo not drawn) is 5.48

The compound listed as Cc1cc(/C=N/n2cnnc2)c(C)n1-c1ccc2ncccc2c1 has a reported activity change, negative = inhibition of -11.6

CCOc1cc(NS(=O)(=O)c2ccc(OC)cc2)c(OCC)cc1NC(C)=O yielded activity change, negative = inhibition of -13.5

Measured activity change, negative = inhibition of O=[N+]([O-])c1cccc(S(=O)(=O)NCc2ccccn2)c1 : -1.49

Briefly, activity change, negative = inhibition measured for O=C(Nc1nnc(S(=O)(=O)N2CCOCC2)s1)c1cccc(Br)c1 : 4.12

Measured activity change, negative = inhibition of COc1ccccc1NC(=O)[C@H](COCc1ccccc1)NC(=O)OC(C)(C)C : -65.5

Lab book: activity change, negative = inhibition of O=C(NCc1ccccc1Cl)C1CCN(c2ncnc3c2nc2n3CCCCC2)CC1 noted as -6.69

The recorded activity change, negative = inhibition for O=C(Cn1c(=O)n(Cc2ccco2)c(=O)c2ccccc21)NCC1CCCO1 (stereo not drawn) is 0.503
